Source: patent US12685735B2

This listing pairs molecules with measured IC50.
# TARGET_ENTITY: BRG-1 (Homo sapiens)
# Sequence (P51532 whole entry): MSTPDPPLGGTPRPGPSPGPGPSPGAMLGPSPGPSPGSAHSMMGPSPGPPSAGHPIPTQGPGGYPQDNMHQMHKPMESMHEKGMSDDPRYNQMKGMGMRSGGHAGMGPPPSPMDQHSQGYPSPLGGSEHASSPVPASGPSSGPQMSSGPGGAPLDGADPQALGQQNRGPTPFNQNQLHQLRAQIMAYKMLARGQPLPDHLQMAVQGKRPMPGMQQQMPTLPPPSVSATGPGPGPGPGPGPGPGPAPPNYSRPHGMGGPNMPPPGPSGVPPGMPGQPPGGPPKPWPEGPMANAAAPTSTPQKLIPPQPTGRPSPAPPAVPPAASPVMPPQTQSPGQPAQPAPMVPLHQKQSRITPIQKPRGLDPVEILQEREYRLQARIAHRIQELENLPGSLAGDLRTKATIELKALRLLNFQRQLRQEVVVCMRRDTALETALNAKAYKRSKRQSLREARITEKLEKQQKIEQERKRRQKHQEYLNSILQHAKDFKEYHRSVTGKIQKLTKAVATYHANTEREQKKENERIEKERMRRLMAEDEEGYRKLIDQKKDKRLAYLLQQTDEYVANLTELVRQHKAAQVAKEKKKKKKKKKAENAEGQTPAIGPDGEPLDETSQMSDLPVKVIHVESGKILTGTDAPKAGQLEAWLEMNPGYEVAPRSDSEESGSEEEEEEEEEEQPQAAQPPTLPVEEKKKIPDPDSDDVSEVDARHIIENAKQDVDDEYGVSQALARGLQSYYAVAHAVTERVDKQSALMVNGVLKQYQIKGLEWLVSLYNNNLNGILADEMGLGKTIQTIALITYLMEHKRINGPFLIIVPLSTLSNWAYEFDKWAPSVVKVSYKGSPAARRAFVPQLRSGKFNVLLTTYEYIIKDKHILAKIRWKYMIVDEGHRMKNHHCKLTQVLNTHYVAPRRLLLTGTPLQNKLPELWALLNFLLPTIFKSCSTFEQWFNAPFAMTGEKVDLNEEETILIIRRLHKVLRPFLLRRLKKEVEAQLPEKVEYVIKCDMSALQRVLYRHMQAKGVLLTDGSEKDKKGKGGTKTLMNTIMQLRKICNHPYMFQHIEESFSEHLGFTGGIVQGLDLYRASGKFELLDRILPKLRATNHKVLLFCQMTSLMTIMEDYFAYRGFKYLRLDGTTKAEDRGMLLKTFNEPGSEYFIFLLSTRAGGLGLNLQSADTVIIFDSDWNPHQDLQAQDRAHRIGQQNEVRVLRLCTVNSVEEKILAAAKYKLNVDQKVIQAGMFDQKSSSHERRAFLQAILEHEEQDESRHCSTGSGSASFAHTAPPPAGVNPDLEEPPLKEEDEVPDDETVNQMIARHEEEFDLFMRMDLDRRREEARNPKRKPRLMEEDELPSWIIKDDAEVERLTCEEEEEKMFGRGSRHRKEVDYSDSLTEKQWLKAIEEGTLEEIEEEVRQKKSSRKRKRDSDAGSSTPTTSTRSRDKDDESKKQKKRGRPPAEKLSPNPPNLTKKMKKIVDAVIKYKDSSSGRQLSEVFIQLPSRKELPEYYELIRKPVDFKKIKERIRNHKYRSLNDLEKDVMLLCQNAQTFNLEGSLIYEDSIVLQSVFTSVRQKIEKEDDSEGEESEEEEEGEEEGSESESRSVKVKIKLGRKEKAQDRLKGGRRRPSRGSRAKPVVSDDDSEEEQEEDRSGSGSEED
# PROCEDURE_SUMMARY: ATPase catalytic activity assay of BRG-1 (ADP-Glo)
# Type: biochemical
# ASSAY_CONDITIONS: ATPase catalytic activity, ADP-Glo; read-out: BRG1 IC50 (μM)*

Some entries whose results are on file:
[[record]]
molecule = "C[C@@H]1CN(c2cccc(-c3csc(NC(=O)CNC(=O)c4cccc([C@]5(C)C[C@@H](O)C5)c4)n3)c2)C[C@H](C)O1"
observed_result = "> 5 µM"

[[record]]
molecule = "CC1(C(N)=O)CCc2ccc(C(=O)NCC(=O)Nc3nc(-c4cccc(-c5ccncc5)c4)cs3)cc21 (centres unmarked)"
observed_result = "1 to 5 µM"

[[record]]
molecule = "CC(C)(CN)c1cccc(C(=O)NCC(=O)Nc2nc(-c3cccc(-c4cccc(C#N)c4)c3)cs2)c1"
observed_result = "> 5 µM"

[[record]]
molecule = "CC(C)(C(N)=O)c1cccc(C(=O)NCC(=O)Nc2nc(-c3cccc(-c4ccncc4)c3)cs2)c1"
observed_result = "1 to 5 µM"

[[record]]
molecule = "COc1cc(-c2cccc(-c3csc(NC(=O)CNC(=O)c4cccc(C(C)(C)CN)c4)n3)c2)ccn1"
observed_result = "> 5 µM"


## Task I would be grateful if you could share the reported IC50 for COc1cccc(-c2csc(NC(=O)CNC(=O)c3ccc4c(c3)C(C)(C#N)CNC4)n2)c1 (centres unmarked) .
## Result 1 to 5 µM

## Task I would be grateful if you could share the reported IC50 for "C[C@@H]1CN(c2cccc(-c3csc(NC(=O)CNC(=O)c4ccc5c(c4)[C@@](C)(CO)CC5)n3)n2)C[C@H](C)O1" .
## Result 0.1 to 1 µM

## Task I would be grateful if you could share the reported IC50 for "COc1cc(-c2csc(NC(=O)CNC(=O)c3ccc4c(c3)[C@](C)(C#N)COC4)n2)ccc1F" .
## Result 0.1 to 1 µM

## Task I would be grateful if you could share the reported IC50 for "CC(C)(CN)c1cccc(C(=O)NCC(=O)Nc2nc(-c3cccc(-c4cc(C#N)cc(CO)c4)c3)cs2)c1" .
## Result 1 to 5 µM

## Task I would be grateful if you could share the reported IC50 for Cn1ncc(-c2cccc(-c3csc(NC(=O)CNC(=O)c4ccc5c(c4)C(C)(CO)CC5)n3)n2)n1 (centres unmarked) .
## Result 1 to 5 µM

## Task I would be grateful if you could share the reported IC50 for "CN1CCCc2ccc(C(=O)NCC(=O)Nc3nc(-c4cccc(-c5ccncc5)c4)cs3)cc2S1(=O)=O" .
## Result 0.1 to 1 µM
